Recorded growth for the following molecules
Tested on: A498 renal
Experiment: NCI-60 one-dose screen, 48 h (100 = growth as untreated, 0 = no growth, -100 = all killed)
Settings: 10 µM unless noted
Compounds without any hit were thinned out: in the full panel of roughly 83,000, 20% have a hit. Activity calls are given as the source filed them. The calls were made as follows: active = growth percent below 10; inactive = the rest.

Example entries and their recorded answers appear below.
molecule: COc1ccc(Cn2cnc3cc(C(=O)Nc4cccc5ccccc45)ccc32)c(OC)c1
growth: -13.9% [30 µM] (active)
//
molecule: CN(C)c1ccc2cc(-c3ccccc3F)c(N)nc2c1
growth: -7.09% (active)
//
molecule: c1ccc2[nH]c(SSc3nc4ncncc4[nH]3)nc2c1
growth: 61.7% (inactive)
//
molecule: CC(C)CCC[C@@H](C)[C@H]1CCC2C3=CCC4C(=O)C=CC(=O)C4C3CC[C@@]21C (some centres not stated)
growth: -6.21% (active)

Request: Give a short answer stating reported growth for "Cc1c2c(cn1Cc1ccccc1)CCc1cn[nH]c1-2" .
Response: 108% (inactive)

Request: Give a short answer stating reported growth for "CC(=O)Nc1ccc(C(=O)/C=C/c2ccccc2)cc1" .
Response: 74% (inactive)

Request: Give a short answer stating reported growth for "Cc1cc(C)on1" .
Response: 121% (inactive)

Request: Give a short answer stating reported growth for "Clc1ccc(/C=N\N=c2\scc(-c3ccc(Cl)cc3)n2/N=C/c2ccc(Cl)cc2)cc1" .
Response: 92.1% (inactive)

Request: Give a short answer stating reported growth for "CCOC(=O)c1c(C)nc2c(c1N)/C(=C/c1cc(OC)c(OC)c(OC)c1)C(=O)N2c1ccc(OC)cc1" .
Response: 82.2% (inactive)

Request: Give a short answer stating reported growth for "Cc1nc(C)c(-c2nn3c(-c4cccc(F)c4)nnc3s2)s1" .
Response: 67.5% (inactive)

====

System: SN12C renal
Experiment: NCI-60 one-dose screen, 48 h
Conditions: 10 µM unless noted
About 83,000 compounds went through this panel and 20% of them were active in at least one assay; those are over-represented in the sample as a whole. Active and inactive are the calls of the source. Rule for the calls: active = growth percent below 10; inactive = the rest.
Pick one: t for active, f for inactive

compound: OC(COc1cccc2ccccc12)CN1CCN(c2ccccc2)CC1 (centres undefined)
assigned.category: f
//
compound: CN(CCCCCCCCNc1ccnc2ccccc12)Cc1ccc(-c2ccc(-c3ccc(C#N)cc3)s2)cc1
assigned.category: t
//
compound: CN(C)c1ccc(/C=N/NC(=O)COc2cc(=O)n(C)c3ccccc23)cc1
assigned.category: f
//
compound: COc1cc(C(=O)/C=C/c2c(C(F)(F)F)nc3ccccn23)cc(OC)c1OC
assigned.category: t
//
compound: Cc1cc(NS(=O)(=O)c2ccccc2)c(OS(=O)(=O)c2ccccc2)cc1C
assigned.category: f
//
compound: CCCCN(Cc1ccc(C(=O)NO)cc1)C(=O)Nc1ccc(OCCCCCCCCCn2cc(CCCCC(=O)N[C@H](C(=O)N3C[C@H](O)C[C@H]3C(=O)NCc3ccc(-c4scnc4C)cc3)C(C)(C)C)nn2)cc1
assigned.category: f

Request: Tell me the assay call for "COc1ccc(Cn2cnc3cc(C(=O)Nc4cccc5ccccc45)ccc32)c(OC)c1" please.
Response: t

Request: Tell me the assay call for "COc1ccc(/C=C(\C#N)n2nnc3ccccc32)cc1" please.
Response: f

Request: Tell me the assay call for "NS(=O)(=O)c1cn(-c2ncnc3nc[nH]c23)ccc1=O" please.
Response: f

====

Recorded growth for the following compounds
Test system: SW-620 colon
Assay: NCI-60 one-dose screen, 48 h (100 = growth as untreated, 0 = no growth, -100 = all killed)
Settings: 10 µM unless noted
About 83,000 compounds went through this panel and 20% of them were active in at least one assay; those are over-represented in the sample as a whole.
Your answer is read as %, so omit the unit and give the number.

Request: Give a short answer stating reported growth for "COc1cccc(/C=C2\COc3ccc(O)cc3C2=O)c1OC" .
Response: 30.5

Request: Give a short answer stating reported growth for "CC(C)OCCCNCC(=O)Nc1ccc(S(=O)(=O)c2ccc(NC(=O)CNCCCOC(C)C)cc2)cc1" .
Response: 87.6

Request: Give a short answer stating reported growth for "CCn1c(Sc2nnc(NC(=O)CCN3CCCC3)s2)nc2c1c(=O)n(C)c(=O)n2C" .
Response: 105

Request: Give a short answer stating reported growth for O=C1CCC(N2C(=O)c3cccc(NCCCC4CCN(CCNC(=O)c5cc6c(o5)C(=O)c5ccccc5C6=O)CC4)c3C2=O)C(=O)N1 (centres undefined) .
Response: -77.9

Request: Give a short answer stating reported growth for "COc1cc(NC(=O)c2cc(O)c(CC=C(C)C)c(O)c2)cc2c1O[C@]1(C)CC[C@@H](O)C(C)(C)[C@H]1C2" .
Response: 14.7

====

System: SF-539 CNS
Experiment: NCI-60 one-dose screen, 48 h (100 = growth as untreated, 0 = no growth, -100 = all killed)
Conditions: 10 µM unless noted
Protocol: Cells are grown in 96 well plates and exposed to the test compound for 48 hours. Compounds are tested at a single concentration, which is 10^-5 M for most compounds. The reported endpoint is percent growth (GI% or GIPRCNT), where numbers from 0 - 100% represent growth inhibition, and numbers from -100% - 0 represent cell death. For example, a value of 40 represents 60% growth inhibition. A value of 0 means no net growth occurred over the course of the experiment. […]
Compounds without any hit were thinned out: in the full panel of roughly 83,000, 20% have a hit. The source made the active and inactive calls. The calls were made as follows: active = growth percent below 10; inactive = the rest.
Recorded growth for the following compounds

Example entries and their recorded answers appear below.
compound: OC(CBr)c1ccnc2ccccc12 (stereo not given)
observed.value: 102% (inactive)
//
compound: COc1cc(/C=C2\C=C(c3ccccc3)N(CCc3ccccc3)C2=O)cc(OC)c1OC
observed.value: -17.2% (active)
//
compound: CN(C)CCOC(=O)Nc1ccc(Cl)cc1
observed.value: 102% (inactive)

Request: Give a short answer stating reported growth for "CCN(CC)CCOC(=O)N1c2ccccc2Sc2ccccc21" .
Response: 100% (inactive)

Request: Give a short answer stating reported growth for "CCCCCCCC/C=C\CCCCCCCC(=O)Oc1cccc2cccnc12" .
Response: 102% (inactive)

Request: Give a short answer stating reported growth for "COc1cc2cc(Oc3ccc(NC(=O)Nc4cc(C(F)(F)F)cc(C(F)(F)F)c4)cc3)c(C)nc2cc1OCCN1CCCCC1" .
Response: -94% (active)

Request: Give a short answer stating reported growth for "Cc1nc(-c2ccccc2)cc2c(O)c(C(=O)N/N=C/c3ccc(N(C)C)cc3)[nH]c(=O)c12" .
Response: 69.7% (inactive)

Request: Give a short answer stating reported growth for O=C1Nc2ccccc2/C1=N/N=C/c1ccc(OC2OC(CO)C(O)C(O)C2O)cc1 (stereo not given) .
Response: 97.5% (inactive)

Request: Give a short answer stating reported growth for "Cc1nc2ccc(C(=O)NCc3cc(C(=O)O)c(C)o3)cc2nc1C" .
Response: 96.2% (inactive)

Request: Give a short answer stating reported growth for "Clc1ccc2[nH]c3c(NCCCN4CCOCC4)ncnc3c2c1" .
Response: 95.4% (inactive)

Request: Give a short answer stating reported growth for "O=C(CCc1nc(-c2cccc(Cl)c2)no1)Nc1ccccn1" .
Response: 96.6% (inactive)

Request: Give a short answer stating reported growth for "N#C/C(=C\c1ccc(Br)cc1)n1nnc2cc(Cl)c(Cl)cc21" .
Response: 49.8% (inactive)

====

System: NCI-H23 lung
Assay: NCI-60 one-dose screen, 48 h (100 = growth as untreated, 0 = no growth, -100 = all killed)
Conditions: 10 µM unless noted
Description: Growth inhibition of the NCI-H23 human Non-Small Cell Lung tumor cell line is measured as a screen for anti-cancer activity. Cells are grown in 96 well plates and exposed to the test compound for 48 hours. Compounds are tested at a single concentration, which is 10^-5 M for most compounds. The reported endpoint is percent growth (GI% or GIPRCNT), where numbers from 0 - 100% represent growth inhibition, and numbers from -100% - 0 represent cell death. […]
The panel holds about 83,000 compounds, 20% with a hit somewhere; the sample as a whole holds those more often.
observation.type: growth (%)
Your answer is read as %, so omit the unit and give the number.

Example entries and their recorded answers appear below.
compound: C=C(C)[C@@H]1CC[C@@]2(C(=O)O)CC[C@]3(C)C(CCC4[C@@]5(C)CCC(OS(=O)(=O)c6ccccc6)C(C)(C)C5CC[C@]43C)C12 (stereo partly drawn)
growth (%): 37.2

compound: CCN(CC)CCCNC(=O)c1ccc(N)cc1O
growth (%): 95.5

compound: C[C@@H]1CC[C@@H]2[C@@H]1[C@H](OC(=O)/C=C/c1ccccc1)[C@]1(C3CCCCC3)C[C@@H](NC(=O)CO)[C@@]2(C)O1
growth (%): 95.8

Request: Give a short answer stating reported growth for "COc1cc(NC(=O)c2cccc(-c3cc(=O)c4c(OC)c(OC)c(OC)cc4o3)c2)cc(OC)c1OC" .
Response: 48.8

Request: Give a short answer stating reported growth for "CCCNCC(=O)Nc1ccc(C(=O)OC(C)(C)CC)cc1" .
Response: 102

Request: Give a short answer stating reported growth for N#Cc1c(-c2ccccc2)nc(SCC2CO2)nc1N1CCOCC1 (stereo not drawn) .
Response: 71.4

Request: Give a short answer stating reported growth for O=C1CCC(N2C(=O)c3cccc(NCCCC4CCN(CCNC(=O)c5cc6c(o5)C(=O)c5ccccc5C6=O)CC4)c3C2=O)C(=O)N1 (stereo not drawn) .
Response: -59.6

Request: Give a short answer stating reported growth for "COC(=O)Nc1nc2ccc(C(=O)C3CC3)cc2[nH]1" .
Response: 33.8
